The measurements presented in this section are drawn from paper PMC12655529.

System: E. coli NCTC 13846
Assay type: cell-based, Escherichia coli
Ends that are not written are not given here.
property: MIC, E. coli (NCTC 13846)

Before answering, review these 4 worked examples.
INSERT INTO measurements (substance, measurement) VALUES
  ('GLLSVLGSLKKIVPHVVPWIAKKL-NH2 [Caerin 1.1-LC 11K.12K.19W]', '2 µM'),
  ('GLLSVLGSLKKIVPHVVPLIAEKL-NH2 [Caerin 1.1-LC 11K]', '4 µM'),
  ('GLLSVLGSLKLIVPRVVPLIAEKL-NH2 [Caerin 1.1-LC PRVVP]', '4 µM'),
  ('GLLSVLGSLKKIVPKAVPKIAEKL-NH2 [Caerin 1.1-LC 11K.19K.PKAVP]', '2 µM');

Switching to the query record.
Value (MIC, E. coli (NCTC 13846), E. coli NCTC 13846) for record GLLSVLGSLKLIVPHWWPLIAEKL-NH2 [Caerin 1.1-LC PHWWP] = 64 µM
